Reference source for all entries: paper PMC7667002

measurement.notes: In vivo pharmacokinetic study of VEN and ODV in rats with or without vonoprazan
Design: species or system Sprague-Dawley rats
test.parameters: male, Sprague-Dawley, rat, plasma, po, 20 mg/kg, AUC(0-∞), rat plasma; VEN 20 mg/kg oral; + vonoprazan 5 mg/kg oral, 7 days
value.type: AUC(0-inf) (ng·h/mL)
Give bare numbers, in ng·h/mL.

{"compound": "COc1ccc(C(CN(C)C)C2(O)CCCCC2)cc1 (centres unmarked)", "AUC(0-inf) (ng·h/mL)": 694}

// switching to the query compound
Input line: Requested field: AUC(0-inf). Item: CN(C)CC(c1ccc(O)cc1)C1(O)CCCCC1 (centres unmarked)
Output line: 225

* * *

Test system: venlafaxine O-demethylation (ODV formation) in rat liver microsomes; no CYP named
measurement.notes: Effect of vonoprazan on the metabolism of VEN
Format: in vitro ADME
test.parameters: rat, rat liver microsomes, pH 7.4, probe venlafaxine (VEN), 2-16 μM
value.type: IC50 at 30 min (µM)
Give bare numbers, in µM.

Input line: Requested field: IC50 at 30 min. Item: CNCc1cc(-c2ccccc2F)n(S(=O)(=O)c2cccnc2)c1 [Vonoprazan]
Output line: 5.54
